Sourced from patent US9073895B2

testTarget: recombinant human FLAP protein (Homo sapiens)
Sequence (P20292 whole entry): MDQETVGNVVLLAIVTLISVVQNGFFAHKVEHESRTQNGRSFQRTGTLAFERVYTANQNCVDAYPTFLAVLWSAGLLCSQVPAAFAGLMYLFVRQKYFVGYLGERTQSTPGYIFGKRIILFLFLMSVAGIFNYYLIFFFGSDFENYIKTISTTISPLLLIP
measurementProtocol: FLAP binding assay (SPA, displacement of [125I]L-691,831)
measurementConditions: membranes of sf9 cells expressing human FLAP, [125I]L-691,831 probe; read-out: hFLAP binding IC50
Give IC50 for every item shown.
Respond with the bare value in nM.

I have this compound here, Nc1ncc(-c2ccc(C3(C(=O)Nc4ccc(Oc5ccc(Cl)cc5)cc4)CCOCC3)cc2)cn1 , and I need its recorded IC50. 30.5

Also Cc1ccc(NC(=O)C2(c3ccc(-c4cnc(N)nc4)cc3)CCC2)nc1 , if possible. 5.1

Note, next up: Nc1ncc(-c2ccc(C3(C(=O)Nc4ccc(N5CCCCC5)cc4)CCOCC3)cc2)cn1 260

Similarly, Nc1ncc(-c2ccc(C3(C(=O)Nc4ccc(C(F)(F)F)c(F)c4)CCOCC3)cc2)cn1 ? 14.5

Do the same for Nc1ncc(-c2ccc(C3(C(=O)Nc4ccc(-c5cnco5)cc4)CCOCC3)cc2)cn1 please 5.5

Try this compound too: Cc1nc(-c2ccc(NC(=O)C(C)(c3ccc(-c4cnn(C)c4)cc3)C(C)C)cc2)cs1 (centres unmarked) 260

Same question for Nc1ncc(-c2ccc(C3(C(=O)Nc4ccnc(O)c4)CCC3)cc2)cn1 please. 470

For COc1ccc(-c2ccc(NC(=O)C(C)(c3ccc(-c4cnc5c(c4)CCN5)cc3)C(C)C)nc2)cn1 (centres unmarked) then? 1.9
